- experimental-system: recombinant human PKC-θ enzyme (Homo sapiens, UniProt Q04759)
- Sequence (Q04759 whole entry): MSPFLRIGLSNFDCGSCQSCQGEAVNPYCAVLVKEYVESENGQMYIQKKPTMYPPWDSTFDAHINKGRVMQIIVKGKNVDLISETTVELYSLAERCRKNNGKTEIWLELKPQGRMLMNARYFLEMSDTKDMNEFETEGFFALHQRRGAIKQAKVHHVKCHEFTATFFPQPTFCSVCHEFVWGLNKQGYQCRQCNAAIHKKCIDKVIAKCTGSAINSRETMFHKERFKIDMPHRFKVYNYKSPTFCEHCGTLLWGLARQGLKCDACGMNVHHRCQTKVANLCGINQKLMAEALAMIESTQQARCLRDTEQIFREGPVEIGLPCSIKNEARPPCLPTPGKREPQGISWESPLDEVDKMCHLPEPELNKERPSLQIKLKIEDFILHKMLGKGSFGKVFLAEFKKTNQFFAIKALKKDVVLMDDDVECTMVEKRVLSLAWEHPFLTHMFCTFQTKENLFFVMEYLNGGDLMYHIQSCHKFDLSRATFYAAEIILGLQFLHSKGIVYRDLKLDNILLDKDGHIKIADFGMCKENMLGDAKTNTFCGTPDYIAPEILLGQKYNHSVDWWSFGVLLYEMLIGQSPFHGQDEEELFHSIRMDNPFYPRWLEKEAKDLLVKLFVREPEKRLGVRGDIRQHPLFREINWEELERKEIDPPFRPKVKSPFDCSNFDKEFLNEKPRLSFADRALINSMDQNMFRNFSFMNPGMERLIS
- protocol: Protein Kinase C-θ assay (SPA, 33P-ATP phosphorylation of biotinylated substrate peptide)
- setup-conditions: 1 μM ATP, 40 min at room temperature, 1% DMSO, read-out: Inhibition of PKC-θ activity [measured as IC50 (μmol/l)]

{"input-smiles": "NC(=O)c1ccc(-c2cnc(NCc3ccccn3)nc2NC2CCN(Cc3ccccc3)CC2)cc1", "IC50": "< 4 µmol/L"}
{"input-smiles": "c1ccc(CN2CCC(Nc3nc(NCc4ccccn4)ncc3-c3cccs3)CC2)cc1", "IC50": "< 4 µmol/L"}
{"input-smiles": "CC(=O)c1ccc(-c2cnc(NCc3ccccn3)nc2NC2CCN(Cc3ccccc3)CC2)cc1", "IC50": "< 4 µmol/L"}
